Item-by-item account of melting point

| structure_string | melting point |
| --- | --- |
| Clc1cccc(COc2ncnc3[nH]cnc23)c1 | 197 to 199 °C |
| c1ccc2c(CSc3ncnc4[nH]cnc34)cccc2c1 | 221 to 222 °C |
| N#Cc1cccc(CSc2ncnc3[nH]cnc23)c1 | 189 to 191 °C |
| N#Cc1ccc(CSc2ncnc3[nH]cnc23)cc1 | 228 to 230 °C |
| FC(F)(F)c1cccc(CSc2ncnc3[nH]cnc23)c1 | 180 to 182 °C |

Exercise: Complete the entry with melting point for Ic1cccc(CSc2ncnc3[nH]cnc23)c1
Solution: 185 to 187 °C

Exercise: Complete the entry with melting point for O=[N+]([O-])c1cccc(CSc2ncnc3[nH]cnc23)c1
Solution: 193 to 195 °C

Exercise: Complete the entry with melting point for CC(=O)Nc1ccc(CSc2ncnc3[nH]cnc23)cc1
Solution: 223 to 225 °C
